Each entry below lists one item and its recorded inhibition zone (IZ) value.
System: Aspergillus flavus
Assay: Antifungal activity against Aspergillus flavus NCIM 524; note: test concentration or dose not given here
Assay type: functional
Response body: numeric value in mm, unit text excluded.

Recorded inhibition zone (IZ), per entry:
[
  {
    "smiles": "CS(=O)(=O)c1ccc(OCc2nnc3sc(-c4cccc(Cl)c4)nn23)cc1",
    "tested_system": "Aspergillus flavus",
    "inhibition zone (IZ) [mm]": 11
  },
  {
    "smiles": "CS(=O)(=O)c1ccc(OCc2nnc3sc(-c4cccc(Cl)c4Cl)nn23)cc1",
    "tested_system": "Aspergillus flavus",
    "inhibition zone (IZ) [mm]": 16
  },
  {
    "smiles": "CS(=O)(=O)c1ccc(OCc2nnc3sc(Cc4ccccc4)nn23)cc1",
    "tested_system": "Aspergillus flavus",
    "inhibition zone (IZ) [mm]": 11
  }
]

QUERY: Could you please provide reported inhibition zone (IZ) for CCSc1ccc(OCc2nnc3n2N=C(c2ccc(O)c(C(N)=O)c2)CS3)cc1 ? Thanks!
RESULT: 16

QUERY: Item CS(=O)(=O)c1ccc(OCc2nnc3n2N=C(c2ccc(O)c(C(N)=O)c2)CS3)cc1 : provide inhibition zone (IZ)
RESULT: 11

QUERY: Fill in inhibition zone (IZ) for record CSc1ccc(OCc2nnc3sc(-c4ccc(C)cc4)nn23)cc1
RESULT: 16

QUERY: Read off the recorded inhibition zone (IZ) for CS(=O)(=O)c1ccc(OCc2nnc3n2N=C(c2ccc(Cl)cc2Cl)CS3)cc1
RESULT: 11

QUERY: Recall and state the measured inhibition zone (IZ) for CS(=O)(=O)c1ccc(OCc2nnc3sc(-c4ccccc4)nn23)cc1 .
RESULT: 11

QUERY: Answer with the recorded inhibition zone (IZ) for the compound listed here: CSc1ccc(OCc2nnc3sc(-c4ccc(N)cc4)nn23)cc1
RESULT: 16

QUERY: Output measured inhibition zone (IZ) for this item: CS(=O)(=O)c1ccc(OCc2nnc3sc(-c4ccccc4Cl)nn23)cc1
RESULT: 11

QUERY: Indicate the recorded inhibition zone (IZ) value for this compound: CSc1ccc(OCc2nnc3sc(-c4cccc(Cl)c4Cl)nn23)cc1
RESULT: 16

QUERY: Provide only the value of recorded inhibition zone (IZ) for COc1ccc(-c2nn3c(COc4ccc(SC)cc4)nnc3s2)cc1
RESULT: 16

QUERY: Let me know recorded inhibition zone (IZ) for CSc1ccc(OCc2nnc3n2N=C(c2ccc(Cl)cc2Cl)CS3)cc1 , thanks.
RESULT: 16
